log10 IC50 values for the molecules below.
Molecular target: JAK3 (Homo sapiens, UniProt P52333)
Construct: purchased Invitrogen
Sequence (P52333 1-1124): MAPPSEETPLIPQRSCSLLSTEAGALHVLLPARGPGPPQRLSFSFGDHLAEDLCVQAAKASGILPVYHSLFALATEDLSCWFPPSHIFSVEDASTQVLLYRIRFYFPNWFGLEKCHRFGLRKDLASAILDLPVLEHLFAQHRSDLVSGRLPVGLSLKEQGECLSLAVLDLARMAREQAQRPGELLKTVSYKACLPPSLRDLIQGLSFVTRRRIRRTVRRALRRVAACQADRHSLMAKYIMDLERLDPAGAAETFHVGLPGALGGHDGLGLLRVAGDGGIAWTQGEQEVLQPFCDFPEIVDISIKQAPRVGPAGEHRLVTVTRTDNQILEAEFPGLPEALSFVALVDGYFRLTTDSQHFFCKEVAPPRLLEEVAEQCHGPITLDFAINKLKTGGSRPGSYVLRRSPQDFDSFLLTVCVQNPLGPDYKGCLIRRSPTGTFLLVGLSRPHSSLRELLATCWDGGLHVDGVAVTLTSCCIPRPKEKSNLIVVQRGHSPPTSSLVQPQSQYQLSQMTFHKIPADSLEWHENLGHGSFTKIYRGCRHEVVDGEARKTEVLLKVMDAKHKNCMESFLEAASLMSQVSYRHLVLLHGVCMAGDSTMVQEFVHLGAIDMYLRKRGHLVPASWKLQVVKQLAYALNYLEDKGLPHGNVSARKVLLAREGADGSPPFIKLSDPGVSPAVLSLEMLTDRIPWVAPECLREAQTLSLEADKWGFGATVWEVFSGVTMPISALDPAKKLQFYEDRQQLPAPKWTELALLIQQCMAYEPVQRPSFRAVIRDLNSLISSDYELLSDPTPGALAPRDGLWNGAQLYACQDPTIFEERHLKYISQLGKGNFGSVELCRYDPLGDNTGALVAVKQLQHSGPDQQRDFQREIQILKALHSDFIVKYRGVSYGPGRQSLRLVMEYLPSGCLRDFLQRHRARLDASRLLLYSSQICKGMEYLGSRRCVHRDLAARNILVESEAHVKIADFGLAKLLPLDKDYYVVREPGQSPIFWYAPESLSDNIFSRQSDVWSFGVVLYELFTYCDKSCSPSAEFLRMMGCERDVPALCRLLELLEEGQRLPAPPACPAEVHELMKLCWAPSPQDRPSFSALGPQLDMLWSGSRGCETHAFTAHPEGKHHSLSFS
Test: Assay for JAK3 Inhibition (phosphorylation of FAM-labeled substrate, Caliper LC-3000)
Assay type: biochemical
Details: −log10(IC50), IC50 is the molar concentration at 50% inhibition; read-out: JAK3 pIC50 (converted)
Parameter: log10 IC50 (log10 of the value in nM)

1. CC(C)[C@H](C(=O)NC1CCC(F)(F)C1)N1Cc2c(F)cnc3[nH]cc(c23)C1=O (some centres unmarked) = 1.90
2. CC[C@H](C(=O)NC1CCN(S(C)(=O)=O)CC1)N1Cc2ccnc3[nH]cc(c23)C1=O = 2.20
3. CC(C)[C@H](C(=O)NC1CCOC1)N1Cc2c(F)cnc3[nH]cc(c23)C1=O (some centres unmarked) = 2.10
4. CC(C)[C@H](C(=O)N1CCC(C#N)C1)N1Cc2c(Cl)cnc3[nH]cc(c23)C1=O (some centres unmarked) = 1.60
5. CC[C@@H](C(=O)N1CCCC1)N1Cc2ccnc3[nH]cc(c23)C1=O = 4.30

FYI, the data here is from patent US8785429B2.
